assay-summary: LTEA_HepaRG_LDH_cytotoxicity: Cytotoxicity Assessment in the Life Technologies and Expression Analysis (LTEA) Assay (AID 2283563)
The source made the active and inactive calls. The calls were made as follows: active = hit-call score of the fitted dose curve at least 0.9, where 1 is the maximum; inconclusive = response in the unintended direction; inactive = score below 0.9.
assay-readout: outcome

In the examples that follow, each entry is paired with its recorded outcome.
>  <smi>
CC(C)c1nnc2ccc(-c3ocnc3-c3cc(F)ccc3F)cn12

>  <outcome>
inactive

$$$$
>  <smi>
Cc1nc(-c2ccccn2)ncc1C(=O)Nn1cc(C)c2cc(F)ccc21

>  <outcome>
inactive

$$$$
>  <smi>
O=c1[nH]cnc2c1ncn2[C@H]1CC[C@@H](CO)O1

>  <outcome>
inactive

$$$$
>  <smi>
OCCNCCO

>  <outcome>
inactive

$$$$
>  <smi>
CCCc1ccccc1

>  <outcome>
inactive

$$$$

**Query** Endpoint output: outcome of OC(CCl)CCl . Value?
**Result** inactive

**Query** Try the compound NC(=O)N1c2ccccc2C=Cc2ccccc21
**Result** inactive
